study target: BO2C11 Fab fragment
protocol details: SPR binding of FVIII C2 proteins to immobilized BO2C11 Fab (Biacore T-100, 25° C., 1:1 binding model)
Design: species or system human
experimental context: equilibrium constant kd/ka, unit printed in Table 12 head
pKd: −log10 of the molar value.

{"columns": ["substance", "pKd"],
 "data": [
  ["A2201P: recombinant His-tagged FVIII C2 domain protein with hemophilic substitution A2201P (SYFTNMFPTWSPSKARLHLQ) [Mutant A2201P]", 10.72]
]}

====

study target: DRB1*1101 (DR1101) (Homo sapiens, UniProt P01903+P01911, A100R/A169T/A87E/I96F/K41T/L162R/M171V/P40S/Q125H/Q178H/Q39Y/Q99D/R42S/S66Y/T262R/V115G/W38E)
protocol details: HLA-DR peptide binding competition assay, DR1101
experimental context: DR1101; concentration displacing 50% reference peptide; ± standard error of the mean; NB = no binding
No end group written: not given here.
Below, each entry is listed with its recorded IC50.

{"columns": ["sequence string", "IC50"],
 "data": [
  ["DAQITASSYFTNMFATWSP [FVIII2187-2205]", "12 µM"],
  ["SYATNMFATWSP [FVIII2194-2205, F2196A]", "> 50 µM"]
]}

====

study target: DRB1*1501 (DR1501) (Homo sapiens, UniProt P01903+P01911)
protocol details: HLA-DR peptide binding competition assay, DR1501
experimental context: DR1501; concentration displacing 50% reference peptide; ± standard error of the mean; NB = no binding
pIC50: −log10 of the molar value. No end group written: not given here.

{"columns": ["sequence string", "study target", "pIC50"],
 "data": [
  ["SYATNMFATWSP [FVIII2194-2205, F2196A]", "DRB1*1501 (DR1501) (Homo sapiens, UniProt P01903+P01911)", "< 4.30"]
]}
